biological target: T1, Recombinant purified HER2 receptor composed of the ectodomain of HER2 fused to the Fc of human IgG (human, UniProt P04626 23-652, limits assumed); test: Biacore SPR, HER2 ectodomain-Fc immobilized, peptide as analyte
T1 construct: extracellular domain; Provided by Dr. Che Law, Xcyte Therapeutics; amine-coupled to the Biacore chip (3500 RU); also called immobilized HER2; p185; not shown: Fc of human IgG
Positions of bridges follow the written chain, without caps; N, C: chain ends. No end group written: not given here.
Would you mind telling me the reported pKd of each entry?
Numbers only, as −log10 of the molar value.

Please review the following examples before continuing.
{"columns": ["BINDER", "pKd"],
 "data": [
  ["YCDGFYACYMDV-NH2 (disulfide 2-8 (inferred), N-terminal Phe of AHNP replaced with Tyr; also called peptide 3) [AHNP analogue 3, YCDGFYACYMDV-NH2]", 6.82],
  ["FCDGFYACYMDV-NH2 (disulfide 2-8, Designed from the CDR-H3 loop of rhumAb 4D5; also called anti-HER2 peptide) [AHNP (anti-HER2/neu peptide mimetic), peptide 1, FCDGFYACYMDV-NH2]", 6.49],
  ["FCGDGFYACYMDV-OH (disulfide 2-9 (inferred), First AHNP analogue designed; has one more turn Gly than peptide 2; also called peptide 8) [AHNP analogue 8, FCGDGFYACYMDV-OH]", 6.12],
  ["GFCDGFYACYMDV-OH (disulfide 3-9 (inferred), Gly placed at the N-terminus before Phe1; also called peptide 7) [AHNP analogue 7, GFCDGFYACYMDV-OH]", 6.14],
  ["FCDGFYACYKDV-OH (disulfide 2-8 (inferred), Met of peptide 2 replaced by Lys; also called peptide 6) [AHNP analogue 6, FCDGFYACYKDV-OH]", 5.24],
  ["FCDGFYACYMDVK-NH2 (disulfide 2-8 (inferred), Lys added as C-terminal residue; also called peptide 5) [AHNP analogue 5, FCDGFYACYMDVK-NH2]", 6.08],
  ["FCDGFYACYMDV-OH (cysteine pairing not given here, also called peptide 9; linear analogue 9) [AHNP analogue 9, FCDGFYACYMDV-OH (linear, not cyclized)]", 5.45]
]}

Then this binder:
Query: pKd; subject: FCDGFYACYMDV-OH (disulfide 2-8 (inferred), also called peptide 2) [AHNP analogue 2, FCDGFYACYMDV-OH (cyclic)]
6.19
